System: STAT3
test.summary: STAT3 reporter gene assay (luciferase), LNCaP stable cell line pSTAT3-TA-luc, IL-6 stimulation
Type: cell-based, human
measurement.conditions: Homo sapiens
parameter: IC50 (µM)

>  <structure.as.smiles>
CC(C)Oc1cc(OC(F)(F)F)cc(C(C)(C)c2cc(Cl)cc(NC(=O)c3cc4cc(CS(C)(=O)=O)ccc4s3)c2)c1

>  <unit.of.measurement>
µM

>  <IC50>
0.0057

$$$$

a. COc1ccc(C(C)(C)c2cc(Cl)cc(NC(=O)c3cc4cc(C(C)(C)S(C)(=O)=O)ccc4s3)c2)s1
b. COc1cc(OC(F)(F)F)cc(C(C)(C)c2cccc(NC(=O)c3cc4cc(C(C)(C)S(C)(=O)=O)ccc4s3)c2)c1
[Q] Please compare: a and b . Report which one has the smaller IC50 value. Please indicate the selected item by its label.
[A] a

I. CC(C)(c1ccc(Cl)cc1)c1cc(Cl)cc(NC(=O)c2cc3cc(CS(=O)(=O)C(F)(F)F)ccc3s2)c1
II. COc1cc(Cl)cc(Oc2cc(NC(=O)c3cc4cc(C(C)(C)S(C)(=O)=O)ccc4s3)cc(Cl)n2)c1
[Q] Hi team, can someone confirm which has the larger IC50: I or II ? Thanks. Lab note: record the label of whichever item you select.
[A] I
(I: 0.9 µM, II: 0.024 µM)

* * *

Test system: STAT3
test.summary: STAT3 reporter gene assay (luciferase), LNCaP stable cell line pSTAT3-TA-luc, IL-6 stimulation
Format: cell-based, human
measurement.conditions: Homo sapiens
parameter: IC50 (µM)

Worked set:
>  <compound>
CC(C)(c1ccc2sc(C(=O)Nc3cc(Cl)nc(Oc4ccc(C(F)(F)F)cc4)c3)cc2c1)S(C)(=O)=O [Example 67]

>  <IC50 [µM]>
0.0084

$$$$
>  <compound>
CC(C)(c1ccc2sc(C(=O)Nc3cc(Cl)nc(Oc4ccc(Cl)cc4)c3)cc2c1)S(C)(=O)=O [Example 64]

>  <IC50 [µM]>
0.021

$$$$
>  <compound>
COc1cc(F)cc(Oc2cc(Cl)cc(NC(=O)c3cc4cc(C(C)(C)S(C)(=O)=O)ccc4s3)c2)c1 [Example 53]

>  <IC50 [µM]>
0.033

$$$$
>  <compound>
CC(C)(c1ccc2sc(C(=O)Nc3cc(Cl)nc(Oc4ccc(F)cc4)c3)cc2c1)S(C)(=O)=O [Example 68]

>  <IC50 [µM]>
0.011

$$$$
>  <compound>
CN(c1ccc(Cl)cc1)c1cc(NC(=O)c2cc3cc(C(C)(C)S(C)(=O)=O)ccc3s2)cc(Cl)n1 [Example 100]

>  <IC50 [µM]>
0.07

$$$$

A. CC(C)(c1ccc2cc(C(=O)Nc3cc(Cl)cc(Oc4ccc(Cl)cc4)c3)sc2c1)S(C)(=O)=O [Example 58]
B. CC(C)(c1ccc2sc(C(=O)Nc3cc(Cl)cc(Oc4ccc(C(F)(F)F)cc4)c3)cc2c1)S(C)(=O)=O [Example 38]
[Q] Compare A and B by numeric IC50 and name the larger one. Answer = label.
[A] A
(A: 0.86 µM, B: 0.018 µM)

P. CC(C)(c1cc(Cl)cc(NC(=O)c2cc3cc(C(C)(C)S(C)(=O)=O)ccc3s2)c1)c1ccc(Cl)s1 [Example 27]
Q. CC(C)(c1ccc2sc(C(=O)Nc3cc(Cl)nc(OC4CC5C=CC4C5)c3)cc2c1)S(C)(=O)=O (centres unmarked) [Example 78]
R. CC(C)(c1ccc2sc(C(=O)Nc3cc(Oc4ccc(Cl)cc4)nc(Cl)n3)cc2c1)S(C)(=O)=O [Example 75]
S. CC(C)(c1cc(Cl)cc(NC(=O)c2cc3cc(C(C)(C)S(C)(=O)=O)ccc3s2)c1)c1cc(OCC(F)F)cc(OC(F)(F)F)c1 [Example 13]
T. CC(C)(c1ccc2sc(C(=O)Nc3cc(Cl)nc(Oc4ccsc4Cl)c3)cc2c1)S(C)(=O)=O [Example 121]
[Q] hey, can you rank those compounds up there by IC50? biggest number first please Please list each label once, in the requested order.
[A] R, P, Q, T, S

I. CC(C)(c1ccc(Cl)cc1)c1cc(Cl)cc(NC(=O)c2cc3cc(C(C)(C)S(C)(=O)=O)c(Cl)cc3s2)c1 [Example 23]
II. CC(C)(c1ccc2sc(C(=N)Nc3cc(Cl)cc(Oc4ccc(Cl)cc4)c3)cc2c1)S(C)(=O)=O [Example 103, 2,2,2-trifluoroacetate]
[Q] I'd appreciate it if you could identify which of I and II has the greater IC50. Pick one; state its label.
[A] II
(II: 0.18 µM, I: 0.084 µM)
